- Target System: UniProtKB P49841
- Test: Promiscuous aggregation assay: GSK3β inhibition with Triton X-100
- Type: biochemical
Measure Name: pIC50
One number for each entry, as −log10 of the molar value.

State the recorded pIC50 for this entry: `O=c1cc(-c2ccc(O)c(O)c2)oc2cc(O)c([C@@H]3O[C@H](CO)[C@@H](O)[C@H](O)[C@H]3O)c(O)c12`
3.72

----------
- Target System: GSK3β (Homo sapiens, UniProt P49841)
- Sequence (P49841 whole entry): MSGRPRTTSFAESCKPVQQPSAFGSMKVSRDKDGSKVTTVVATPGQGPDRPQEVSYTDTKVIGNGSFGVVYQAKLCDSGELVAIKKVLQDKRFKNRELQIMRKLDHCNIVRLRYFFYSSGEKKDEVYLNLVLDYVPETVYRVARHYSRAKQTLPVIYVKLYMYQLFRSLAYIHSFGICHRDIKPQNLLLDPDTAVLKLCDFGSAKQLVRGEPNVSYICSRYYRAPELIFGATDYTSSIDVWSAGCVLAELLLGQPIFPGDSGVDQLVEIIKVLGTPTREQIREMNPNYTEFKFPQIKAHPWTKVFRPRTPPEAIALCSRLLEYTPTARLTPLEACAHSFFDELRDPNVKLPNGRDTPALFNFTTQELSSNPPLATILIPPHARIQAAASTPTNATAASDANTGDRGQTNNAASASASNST
- Test: Promiscuous aggregation assay: GSK3β inhibition with Triton X-100
- Type: biochemical
- Experimental Conditions: IC50, GSK3β, with 0.01% Triton, with 0.01% Triton X-100
Measure Name: pIC50
One number for each entry, as −log10 of the molar value.

State the recorded pIC50 for this entry: `O=c1cc(-c2ccc(O)c(O)c2)oc2cc(O)cc(O)c12`
4.49

----------
- Target System: CDK5/p25 (Homo sapiens)
- Sequence (Q00535 whole entry): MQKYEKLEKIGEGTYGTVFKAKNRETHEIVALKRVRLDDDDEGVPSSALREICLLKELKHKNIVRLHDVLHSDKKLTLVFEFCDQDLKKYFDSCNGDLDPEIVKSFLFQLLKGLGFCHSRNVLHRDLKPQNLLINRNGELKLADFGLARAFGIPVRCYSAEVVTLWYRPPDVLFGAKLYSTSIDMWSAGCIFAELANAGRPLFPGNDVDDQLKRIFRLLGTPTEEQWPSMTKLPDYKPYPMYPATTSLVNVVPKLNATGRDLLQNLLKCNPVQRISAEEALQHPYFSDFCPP
- Sequence (Q15078 99-307 partner limits assumed): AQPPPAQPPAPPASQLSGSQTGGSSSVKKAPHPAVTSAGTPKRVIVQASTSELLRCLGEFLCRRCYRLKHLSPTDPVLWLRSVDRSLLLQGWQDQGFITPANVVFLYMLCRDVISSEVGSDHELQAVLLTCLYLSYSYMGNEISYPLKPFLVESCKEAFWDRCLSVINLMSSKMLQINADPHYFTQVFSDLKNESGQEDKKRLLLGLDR
- Test: ADP-Glo kinase luminescent assay, CDK5/p25 inhibition
- Assay type: biochemical
pIC50: −log10 of the molar value.
Measure Name: pIC50

State the recorded pIC50 for this entry: O=c1cc(-c2ccc(O)c(O)c2)oc2cc(O)c([C@@H]3O[C@H](CO)[C@@H](O)[C@H](O)[C@H]3O)c(O)c12 [Compound 1, isoorientin]
< 1.82

----------
- Target System: GSK3β (Homo sapiens, UniProt P49841)
- Test: Promiscuous aggregation assay: GSK3β inhibition with Triton X-100
- Assay type: biochemical
- Experimental Conditions: IC50, GSK3β, without Triton, before addition of Triton X-100
Measure Name: IC50 (nM)
Numbers only, in nM.

Look up IC50 with GSK3β (Homo sapiens, UniProt P49841) for this compound: `O=c1cc(-c2ccc(O)c(O)c2)oc2cc(O)cc(O)c12`
2000

----------
- Target System: UniProt:P49841
Measure Name: Ki
For clarity, give the value followed by its unit.

State the recorded Ki for this entry: O=c1cc(-c2ccc(O)c(O)c2)oc2cc(O)c([C@@H]3O[C@H](CO)[C@@H](O)[C@H](O)[C@H]3O)c(O)c12 [Compound 1, isoorientin]
210 µM
